These data points were gathered from patent US20260250325A1.

Answer each item with its documented EC50 (nM), plaque reduction, hPIV3 C243, LLC-MK2 cells.
Substrate: F protein of hPIV Type 3 (hPIV3 C243) (human parainfluenza virus type 3, strain C243)
Test: cell-based or functional assay
Hi! Could you send only the number? It should be in nM, unit omitted.

So, FDEEISQVNEKINQSLAFIRKSDELLHNVNAGKSTTEAAAKK (modifications not checked) [Compound 26] ? Its EC50 (nM), plaque reduction, hPIV3 C243, LLC-MK2 cells was 1.35

So, WDEFDKKIEEVNKKIEESLKKIEESDKKLHNVEAAAKK (modifications not checked) [Compound 44] ? Its EC50 (nM), plaque reduction, hPIV3 C243, LLC-MK2 cells was 27.9

So, YDELVFDASQVNEKINQSLEKIRKSDELLHNVGSGSGK (modifications not checked) [Compound 25] ? Its EC50 (nM), plaque reduction, hPIV3 C243, LLC-MK2 cells was 29.4

So, LVKKIDEFDASISQVNEKINQSLEEIRKSDELLHNVGSGSGK (modifications not checked) [Compound 29] ? Its EC50 (nM), plaque reduction, hPIV3 C243, LLC-MK2 cells was 26.3

So, WDEFDKKIEEVNKKIEESLKKIEESDKKLEEVNEAAAKK (modifications not checked) [Compound 41] ? Its EC50 (nM), plaque reduction, hPIV3 C243, LLC-MK2 cells was 71.1

So, WDEFDKKIEEVNKKIEESLKKIEESDKKLEEVNAEAAAKK (modifications not checked) [Compound 40] ? Its EC50 (nM), plaque reduction, hPIV3 C243, LLC-MK2 cells was 22.2

So, SDELVNKKIEFDKKINQSLKKIEESDKKKLEAAAKK (modifications not checked) [Compound 51] ? Its EC50 (nM), plaque reduction, hPIV3 C243, LLC-MK2 cells was 18.8

So, DEFDKKIEEVNKKIEESLKKIEESDKKLEEVNEAAAKK (modifications not checked) [Compound 14] ? Its EC50 (nM), plaque reduction, hPIV3 C243, LLC-MK2 cells was 31.4

So, WDEFDASISQVNEKINQSLEEIRKSDELLHNVNALEAAAKK (modifications not checked) [Compound 38] ? Its EC50 (nM), plaque reduction, hPIV3 C243, LLC-MK2 cells was 26.4
